Here is a set of compounds with reported pIC50 for human Bub1 (Homo sapiens (Human)), compiled from the literature.
pIC50: −log10 of the molar value.

Example cases with answers are listed next.
CCCCN1CCC(COc2ccc(NC(=O)c3c(C)nsc3Nc3cnc(C(F)(F)F)cn3)cn2)C(F)(F)C1 (stereo not shown)    < 4.70
CCc1ccccc1NC(=O)c1c(C)nsc1Nc1nc(C)nc2sccc12    < 4.70
Cc1nsc(Nc2cnc(C(F)(F)F)cn2)c1C(=O)Nc1ccc(F)c(O[C@@H]2CCN(CC(F)(F)F)C2)c1    < 4.70
Cc1nsc(Nc2cnc3ccccc3n2)c1C(=O)Nc1cccc(-c2nnc(C(C)(C)C)o2)c1    ≤ 4.70
Cc1nsc(Nc2cnc3ccccc3n2)c1C(=O)Nc1ccc(C(=O)O)cc1    5.42
CCOC(=O)c1sc(Nc2snc(C)c2C(=O)Nc2ccc(Cl)c(F)c2)nc1C    < 4.70
CCOc1cc(F)c(Cn2nc(-c3ncc(OC)c(Nc4ccncc4)n3)c3c2CCC3)c(F)c1    8.30
Cc1nsc(Nc2cncc(C(F)(F)F)n2)c1C(=O)Nc1ccc(OC2CCN(CC(F)F)CC2)c(F)c1    < 4.70

The recorded pIC50 for CCOC(=O)c1cnccc1Nc1nc(-c2nn(Cc3ccccc3F)c3c2CCC3)ncc1Oc1ccncc1C(=O)OCC is 6.30

pIC50 reading for Cc1nsc(Nc2cnc3ccccc3n2)c1C(=O)Nc1cccc(NS(=O)(=O)C2CCN(CC(F)(F)F)C2)c1 (stereo not shown) : < 4.70

COc1ccc(NC(=O)c2c(C)nsc2Nc2cccc(C#N)n2)cn1 has a reported pIC50 of < 4.70

Just so you know, measured pIC50 for Cc1noc(Nc2cnc(C(F)(F)F)cn2)c1C(=O)Nc1ccc(OC2CCN(CCC(F)(F)F)CC2)nc1 came out at < 4.70

Entry under test: CNC(=O)c1cnc(Nc2snc(C)c2C(=O)Nc2ccc(F)c(F)c2)cn1 . Its pIC50 was < 4.70

For this compound ( Cc1nsc(Nc2cnc(C(F)(F)F)cn2)c1C(=O)Nc1ccc(C(=O)NC2CCN(CC(F)(F)F)CC2)cc1 ), measured pIC50 is < 4.70

Field pIC50 (entry Cc1nsc(Nc2cnc(C(F)(F)F)cn2)c1C(=O)Nc1ccc(OC2CCN(C(CF)CF)C2)nc1 (stereo not shown) ) reads ≤ 4.70

The measured pIC50 associated with CCN1CCC(COc2ccc(NC(=O)c3c(C)nsc3Nc3cnc(C(F)(F)F)cn3)cn2)C(F)(F)C1 (stereo not shown) reads < 4.70
